Data provenance is PubChem BioAssay.

ASSAY EXPLANATION: decreased DLD-1 cellular survival, CellTiter-Glo luminescent readout, NPC compound collection, primary HTS (AID 1117346)
CONDITION CONTEXT: DLD-1 viability, CellTiter-Glo luminescence; at 20 µM (top of the series)
Active and inactive are the calls of the source.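 How the source made its calls: active means compounds that lower survival of DLD-1 colon cancer cells in the luminescence readout, no cutoff given; inactive means the rest.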
Select the correct class. Options are Yes for active, No for inactive and nothing else.

Example cases with answers are listed next.
[[record]]
compound = "N[C@@H](CSCCCO)C(=O)O"
label_class = "No"

[[record]]
compound = "CN[C@H](CC(C)C)C(=O)N[C@H]1C(=O)N[C@@H](CC(N)=O)C(=O)N[C@H]2C(=O)N[C@H]3C(=O)N[C@H](C(=O)N[C@H](C(=O)O)c4cc(O)cc(O)c4-c4cc3ccc4O)[C@H](O)c3ccc(c(Cl)c3)Oc3cc2cc(c3O[C@@H]2OC(CO)[C@@H](O)[C@H](O)[C@@H]2O[C@H]2C[C@](C)(N)[C@H](O)[C@H](C)O2)Oc2ccc(cc2Cl)[C@H]1O (stereo partly drawn)"
label_class = "No"

[[record]]
compound = "CCOC(=O)[C@H](CCc1ccccc1)N[C@@H](C)C(=O)N(CC(=O)O)C1Cc2ccccc2C1"
label_class = "No"


Input line: Please state the recorded outcome for this compound: CC(C)Cc1ccc(CC(=O)O)cc1
Output line: No

Input line: Please state the recorded outcome for this compound: CCOc1ccc(S(=O)(=O)O)c2cccnc12
Output line: No

Input line: Please state the recorded outcome for this compound: Cc1ccccc1C(=O)N1CC/C(=N\OS(=O)(=O)O)c2ccc(Cl)cc21
Output line: No

Input line: Please state the recorded outcome for this compound: CC(C)=CCNc1ncnc2c1ncn2[C@@H]1O[C@H](CO)[C@@H](O)[C@H]1O
Output line: Yes

Input line: Please state the recorded outcome for this compound: O=C(O)c1cc(=O)c2c3nc4ccccc4oc-3cc(=O)c2[nH]1
Output line: No

Input line: Please state the recorded outcome for this compound: CCOCCOC(=O)/C=C/c1ccc(OC)cc1
Output line: No

Input line: Please state the recorded outcome for this compound: COc1cc(/C=C/C(=O)O[C@H]2CC[C@]34C[C@]35CC[C@]3(C)[C@@H]([C@H](C)CCC=C(C)C)CC[C@@]3(C)[C@@H]5CC[C@H]4C2(C)C)ccc1O
Output line: No

Input line: Please state the recorded outcome for this compound: CCS(=O)(=O)c1ccc(OC)c(C(=O)OC)c1
Output line: No

Input line: Please state the recorded outcome for this compound: NC(N)=NN=C(/C=C/c1ccc([N+](=O)[O-])o1)/C=C/c1ccc([N+](=O)[O-])o1
Output line: Yes

Input line: Please state the recorded outcome for this compound: Cc1oc(=O)oc1COC(=O)[C@@H]1N2C(=O)[C@@H](NC(=O)[C@H](N)c3ccccc3)[C@H]2SC1(C)C
Output line: No
